Experiment: Study No. 15-4 toxicokinetics of fospropofol and propofol in plasma
Format: in vivo, Beagle dogs
Details: male, beagle, dog, plasma, po, 100 mg/kg, oral gavage fospropofol disodium; Male; 100 mg/kg; Day 1; read-out: Fospropofol Tmax
Method: The purpose of Study No. 15-4 (GLP) was to determine the potential toxicity of fospropofol in Beagle dogs when administered once daily by oral gavage for 14 days. […] Because the treatment-related clinical observations (consistent with the expected transient sedative actions of fospropofol) and effects on hematology and clinical chemistry parameters were considered nonadverse, the NOAEL was determined to be 160 mg/kg/day (3200 mg/m^2/day).
experimentalReadout: Tmax

*Q* Which Tmax reading was recorded for the compound CC(C)c1cccc(C(C)C)c1OCOP(=O)(O)O ?
*A* 30 to 60 min

---

assay: Study A16 Part 1: PK of single ascending oral doses of fospropofol disodium (200 to 2000 mg), fasted healthy adults; assay type: in vivo, human; conditions: both sexes, human, plasma, oral, 200 mg, Propofol median Tmax, 200-mg dose
experimentalReadout: Tmax (min)
Numbers only, in min.

*Q* Recorded Tmax of CC(C)c1cccc(C(C)C)c1O [propofol, 2,6-diisopropylphenol] , please.
*A* 30

---

assay: Study A16 Part 1: PK of single ascending oral doses of fospropofol disodium (200 to 2000 mg), fasted healthy adults; assay type: in vivo, human; settings: both sexes, human, plasma, po, 800 mg, Propofol Cmax Maximum, oral fospropofol disodium 800 mg
experimentalReadout: Cmax (ng/mL)
Numbers only, in ng/mL.

*Q* Reported Cmax for CC(C)c1cccc(C(C)C)c1O : what is it?
*A* 1350

---

assay: Study No. 15-3 toxicokinetics of fospropofol and propofol in plasma; assay type: in vivo, Sprague-Dawley rats; settings: male, Sprague-Dawley, rat, plasma, po, 100 mg/kg, oral gavage fospropofol disodium; Male; 100 mg/kg; Day 14; read-out: Fospropofol AUC0-6 hr
experimentalReadout: AUC(0-t) (ng·h/mL)
Numbers only, in ng·h/mL.

*Q* I have this molecule here, CC(C)c1cccc(C(C)C)c1OCOP(=O)(O)O , and I need its recorded AUC(0-t).
*A* 370

---

experiment: Study A16 Part 2: PK of a single dose of 1200 mg fospropofol disodium following a high-fat meal; type: in vivo, human; conditions: both sexes, human, plasma, oral; 1200 mg, fed; no appreciable effect; read-out: Fospropofol Tmax (median)
experimentalReadout: Tmax (min)
One number for each entry, in min.

*Q* What value of Tmax has been recorded for this entry: CC(C)c1cccc(C(C)C)c1OCOP(=O)(O)O
*A* 20

---

Assay: Study A16 Part 1: PK of single ascending oral doses of fospropofol disodium (200 to 2000 mg), fasted healthy adults
Assay type: in vivo, human
Details: both sexes, human, plasma, oral, 200 mg, Propofol AUC0-inf (arithmetic mean, n=10), after a single 200-mg capsule
Source text: Part 1 of Study A16 was a double-blind, randomized, placebo-controlled study to investigate the safety-tolerability and PK of oral administration of single ascending doses of fospropofol disodium to healthy adult male and female volunteers. Subjects were healthy adults (age 18-55 years inclusive, BMI 18-29.9 kg/m^2). […]
experimentalReadout: AUC(0-inf) (ng·h/mL)
Numbers only, in ng·h/mL.

*Q* Need AUC(0-inf) of CC(C)c1cccc(C(C)C)c1O [propofol, 2,6-diisopropylphenol] , thanks.
*A* 118
